Molecular target: ALK4 (activin receptor type-1B) (Homo sapiens)
Sequence (P36896 whole entry): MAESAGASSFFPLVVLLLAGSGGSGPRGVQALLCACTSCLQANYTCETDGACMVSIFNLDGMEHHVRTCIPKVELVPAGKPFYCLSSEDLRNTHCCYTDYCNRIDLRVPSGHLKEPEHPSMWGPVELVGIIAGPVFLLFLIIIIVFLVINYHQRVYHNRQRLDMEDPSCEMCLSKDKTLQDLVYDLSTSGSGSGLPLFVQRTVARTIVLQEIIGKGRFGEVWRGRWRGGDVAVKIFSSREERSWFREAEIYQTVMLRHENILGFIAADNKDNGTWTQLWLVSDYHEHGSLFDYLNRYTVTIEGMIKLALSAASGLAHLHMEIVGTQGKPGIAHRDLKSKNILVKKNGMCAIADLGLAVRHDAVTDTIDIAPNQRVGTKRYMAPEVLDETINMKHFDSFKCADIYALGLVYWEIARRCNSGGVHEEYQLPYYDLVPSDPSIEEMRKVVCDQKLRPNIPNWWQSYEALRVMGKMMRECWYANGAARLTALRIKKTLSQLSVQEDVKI
Assay: Inhibition of human ALK4 at 10 uM using casein as substrate in presence of 200 uM ATP by radiometric kinase assay relative to control
Settings: human ALK4 kinase (activin receptor type-1B), probe casein
Result type: inhibition at 10 µM

Prompt line: Form entry - test system: ALK4 (activin receptor type-1B) (Homo sapiens); read-out: inhibition at 10 µM; compound: COc1cc(O)c2c(c1)CCC[C@H](O)[C@H](O)C(=O)CCC[C@H](C)OC2=O
Response line: < 40%

====

Biological target: Activin receptor type-1-like (Homo sapiens, UniProt P37023)
Sequence (P37023 whole entry): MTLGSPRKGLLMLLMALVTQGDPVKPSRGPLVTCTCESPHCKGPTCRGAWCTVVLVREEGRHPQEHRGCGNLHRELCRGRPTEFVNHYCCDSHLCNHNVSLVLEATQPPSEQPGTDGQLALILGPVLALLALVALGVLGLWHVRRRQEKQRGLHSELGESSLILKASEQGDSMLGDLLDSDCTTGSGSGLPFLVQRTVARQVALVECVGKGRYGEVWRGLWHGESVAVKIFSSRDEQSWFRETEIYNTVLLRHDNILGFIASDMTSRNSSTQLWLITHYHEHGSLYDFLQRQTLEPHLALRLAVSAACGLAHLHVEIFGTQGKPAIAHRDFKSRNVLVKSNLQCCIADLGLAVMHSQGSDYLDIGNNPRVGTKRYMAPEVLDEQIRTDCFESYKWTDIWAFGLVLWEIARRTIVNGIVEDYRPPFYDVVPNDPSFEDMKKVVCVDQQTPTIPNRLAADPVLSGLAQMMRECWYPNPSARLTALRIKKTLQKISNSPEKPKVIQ
Experiment: Inhibition of human ALK1 using casein as substrate in presence of [gamma-33P]-ATP by scintillation counting method
For each entry below, report its pIC50 value.
Lab note: report pIC50 as minus log10 of the concentration in molar units, number only.

Prompt line: GET /values?readout=pIC50&item= COc1cc(O)c2c(c1)CCC[C@H](O)[C@H](O)C(=O)CCC[C@H](C)OC2=O
Response line: 7.21

Prompt line: GET /values?readout=pIC50&item= COc1cc(O)c2c(c1)CCC[C@H](O)[C@H](O)[C@H](O)CCC[C@H](C)OC2=O
Response line: 5.75

Prompt line: GET /values?readout=pIC50&item= COc1cc(O)c2c(c1)CCC[C@H](O)[C@H](O)C(=O)/C=C\C[C@H](C)OC2=O
Response line: 6.90

Prompt line: GET /values?readout=pIC50&item= C=C1CCC[C@H](C)OC(=O)c2c(O)cc(OC)cc2CCC[C@H](O)[C@@H]1O
Response line: 5.90

Prompt line: GET /values?readout=pIC50&item= COc1cc(O)c2c(c1)CCC[C@H](O)[C@H](O)[C@@H](O)CCC[C@H](C)OC2=O
Response line: 6.11
